system_under_test: T1, recombinant human CD137 (Homo sapiens, UniProt Q07011)
T1 construct: made in house; host or cells: FreeStyle293F
assay_remarks: Biacore T200 SPR affinity of Dual-Fab antibodies to human CD137
Type: binding
assay_setup: 37 degrees C, pH 7.4
measurement_label: CD137 Kon (M⁻¹ s⁻¹)
Answers are plain numbers, in M⁻¹ s⁻¹.

H1647L0581: affinity matured Dual-Fab variant, VH SEQ ID NO 96, VL SEQ ID NO 143 (antibody, V domains shown) VH: QVQLVESGGGLVQPGRSLRLSCAASGFKFSNTWFHWVRQAPGKGLEWVAQIKDYYNDYAAYYAPSVKGRFTISRDDSKNSIYLQMNSLKTEDTAVYYCHYVHYASASTLLPAEGVDAWGQGTTVTVSS VL: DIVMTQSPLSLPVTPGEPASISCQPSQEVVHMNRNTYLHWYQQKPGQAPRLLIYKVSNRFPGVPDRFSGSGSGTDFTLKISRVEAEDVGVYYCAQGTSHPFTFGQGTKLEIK ... 9980

We next turn to a different molecule, shown below.
Lookup: Any idea what its CD137 Kon is? The molecule is H1651L0581: affinity matured Dual-Fab variant, VH SEQ ID NO 98, VL SEQ ID NO 143 (antibody, V domains shown) VH: QVQLVESGGGLVQPGRSLRLSCAASGFVFSNVWFHWVRQAPGKGLEWVAQIKDKYNAYADYYAPSVEGRFTISRDDSKNSIYLQMNSLKTEDTAVYYCHYVHYASASTLLPAEGVDAWGQGTTVTVSS VL: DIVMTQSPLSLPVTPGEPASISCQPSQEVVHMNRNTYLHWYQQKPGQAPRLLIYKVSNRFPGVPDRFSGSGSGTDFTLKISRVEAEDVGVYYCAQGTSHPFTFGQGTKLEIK
Found: 14000
